experiment: Pharmacokinetic analysis after ip administration in mice; assay type: in vivo; settings: Swiss Webster, mouse, liver, ip, 10 mg/kg
Reported concentration at 12 h is given for each of the following compounds.

>  <molecular.string>
Clc1ccc(CNc2nc(NCc3ccccc3)c3ccccc3n2)cc1

>  <concentration at 12 h, µM>
25.3

$$$$
>  <molecular.string>
CC(C)Nc1nc(NCc2ccccc2)nc2ccccc12

>  <concentration at 12 h, µM>
20.2

$$$$

* * *

assay: Pharmacokinetic analysis after ip administration in mice; assay type: in vivo; details: Swiss Webster, mouse, liver, ip, 10 mg/kg
Reported concentration at 4 h is given for each of the following molecules.
parameter: concentration at 4 h (µM)

>  <molecule>
Clc1ccc(CNc2nc(NCc3ccccc3)c3ccccc3n2)cc1 [Compound 15]

>  <result.number>
25.3

$$$$
>  <molecule>
CC(C)Nc1nc(NCc2ccccc2)nc2ccccc12 [Compound 40]

>  <result.number>
20.2

$$$$
